Reported pIC50 is given for each of the following compounds.
# target.or.test.system: VIM-1 (Pseudomonas aeruginosa)
# Construct: culture supernatant used unpurified
# assay.remarks: biochemical
# condition.label: cleavage of nitrocefin (200 uM) by VIM-1 supernatant
pIC50: −log10 of the molar value.

Example entries and their recorded answers appear below.
* COc1ccc2c(c1C(=O)O)OB(O)[C@@H](Sc1nnc(SC3CCNCC3)s1)C2 | > 6.00
* COc1ccc2c(c1C(=O)O)OB(O)[C@@H](Sc1nnc(NCCN)s1)C2 | > 6.00
* COc1ccc2c(c1C(=O)O)OB(O)[C@@H](Sc1nnc(NCCN3CCNCC3)s1)C2 | > 6.00
* COc1ccc2c(c1C(=O)O)OB(O)[C@@H](Sc1nncn1CCCCN)C2 | > 6.00
* COc1ccc2c(c1C(=O)O)OB(O)[C@@H](Sc1nnc(OCCN)s1)C2 | > 6.00
* Cn1cnnc1S[C@H]1Cc2cccc(C(=O)O)c2OB1O | > 6.00

Now examine the next entry.
[in] Looking for the measured pIC50 of "COc1ccc2c(c1C(=O)O)OB(O)[C@@H](SC1CN(S(N)(=O)=O)C1)C2" , can you help?
[out] ≤ 6.00

----------
# assay.remarks: Serum stability of prodrugs: hydrolysis by rat serum
# Format: in vitro ADME
# condition.label: rat serum, 37 degrees, prodrug, sampled immediately
# Method: Prodrug strategy is one of the ways to achieve or increase oral bioavailability for therapeutic drugs. Compound 62 was used as a template for various ester prodrugs. After a prodrug molecule is absorbed into systemic circulation, it should be hydrolyzed in the blood in order to release the active form. Hydrolysis of several prodrugs by rat and human serum were evaluated. For all stability experiments the test compounds were treated with rat or human serum in Eppendorf tubes. […]
Measured Initial Conc. in Serum vs 40 µM: at or above is fulfilled, below is not fulfilled.

- COc1ccc2c(c1C(=O)OCOC(=O)C(C)C)OB(O)[C@@H](Sc1nncs1)C2: not fulfilled

[in] Item "COc1ccc2c(c1C(=O)OCOC(=O)C(C)(C)C)OB(O)[C@@H](Sc1nncs1)C2" with Measured Initial Conc. in Serum of 40 µM or above?
[out] not fulfilled

[in] Try this compound too: "COc1ccc2c(c1C(=O)OCOC(=O)OC(C)C)OB(O)[C@@H](Sc1nncs1)C2"
[out] not fulfilled

[in] Try this compound too: "CCOC(=O)OCOC(=O)c1c(OC)ccc2c1OB(O)[C@@H](Sc1nncs1)C2"
[out] fulfilled

[in] Try this compound too: "COc1ccc2c(c1C(=O)OCOC(C)=O)OB(O)[C@@H](Sc1nncs1)C2"
[out] fulfilled

----------
# target.or.test.system: NDM-1 (Klebsiella pneumoniae, UniProt C7C422)
# Sequence (C7C422 29-270, looked up, species assumed): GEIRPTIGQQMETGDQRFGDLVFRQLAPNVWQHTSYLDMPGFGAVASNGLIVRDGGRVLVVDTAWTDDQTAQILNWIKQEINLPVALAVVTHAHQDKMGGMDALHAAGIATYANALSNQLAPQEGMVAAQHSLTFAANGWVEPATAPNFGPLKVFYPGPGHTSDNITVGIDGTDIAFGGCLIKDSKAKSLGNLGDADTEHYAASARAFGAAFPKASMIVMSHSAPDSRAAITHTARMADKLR
# assay.remarks: Inhibition of purified class B carbapenemase NDM-1 (Ki, imipenem substrate)
# Type: biochemical
# condition.label: NDM-1, substrate imipenem; read-out: Ki NDM-1, Imipenem
property: Ki

Example entries and their recorded answers appear below.
- COc1ccc2c(c1C(=O)O)OB(O)[C@@H](SC1CN(C3=NCCS3)C1)C2: > 0.1 µM
- CSCCOc1ccc2c(c1C(=O)O)OB(O)[C@@H](Sc1nncs1)C2: 0.01 to 0.1 µM
- COc1ccc2c(c1C(=O)O)OB(O)[C@@H](Sc1nccs1)C2: 0.01 to 0.1 µM
- O=C(O)c1cccc2c1OB(O)[C@@H](Sc1nccs1)C2: > 0.1 µM

Now examine the next entry.
[in] Looking for the measured Ki of "O=C(O)c1c(F)ccc2c1OB(O)[C@@H](Sc1nnc(C(F)(F)F)s1)C2" , can you help?
[out] > 0.1 µM

Data provenance: patent US10206937B2
